target: KRAS G12C-BRAF complex (Homo sapiens, UniProt P01116+P62937, G12C); construct: expressed in transfected cells; experiment: KRAS-BRAF with CYPA (500 nM) interaction assay (TR-FRET), G12C; type: biochemical; details: 3 hours
Sequence (P01116 1-188 isoform P01116-2 G12C, one chain of several): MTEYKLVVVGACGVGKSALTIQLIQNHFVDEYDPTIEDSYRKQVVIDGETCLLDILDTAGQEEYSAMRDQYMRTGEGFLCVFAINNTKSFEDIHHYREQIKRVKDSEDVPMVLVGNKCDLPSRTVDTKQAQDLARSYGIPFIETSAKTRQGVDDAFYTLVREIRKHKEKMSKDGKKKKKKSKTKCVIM
quantity: IC50 (µM)
# output: bare number, implied unit µM

// solved cases for IC50 follow
CO[C@@H](C)c1ncc(N2CCN(C)CC2)cc1-c1c2c3cc(c(F)cc3n1CC(F)(F)F)-c1csc(n1)C[C@H](NC(=O)[C@H](C(C)C)N(C)C(=O)N1CC(C#CC(F)(F)F)C1)C(=O)N1CCC[C@H](N1)C(=O)OCC(C)(C)C2 (atropisomer, axis not shown; (M)) [Example 2]: 1.79
CO[C@@H](C)c1ncc(N2CCN(C)CC2)cc1-c1c2c3cc(c(F)cc3n1CC(F)(F)F)-c1csc(n1)C[C@H](NC(=O)[C@@H](CC(=O)N1CC(C#CC(F)(F)F)C1)C(C)C)C(=O)N1CCC[C@H](N1)C(=O)OCC(C)(C)C2 [Example 19]: 0.24

Incoming: Consider the compound CCn1c(-c2cc(N3CCN(C)CC3)cnc2[C@H](C)OC)c2c3cc(c(F)cc31)-c1csc(n1)C[C@H](NC(=O)[C@H](C(C)C)N(C)C(=O)N1CC(C#CC(F)(F)F)C1)C(=O)N1CCC[C@H](N1)C(=O)OCC(C)(C)C2 (atropisomer, axis not shown; (M)) [Example 14] and give its recorded IC50.
Outgoing: 1.66

###

target: KRAS G12V binding to BRAF (Homo sapiens, UniProt P01116+P62937, G12V); assay: KRAS-BRAF with CYPA (500 nM) interaction assay (TR-FRET), G12V; type: biochemical; details: 3 hours
Sequence (P01116 1-188 isoform P01116-2 G12V): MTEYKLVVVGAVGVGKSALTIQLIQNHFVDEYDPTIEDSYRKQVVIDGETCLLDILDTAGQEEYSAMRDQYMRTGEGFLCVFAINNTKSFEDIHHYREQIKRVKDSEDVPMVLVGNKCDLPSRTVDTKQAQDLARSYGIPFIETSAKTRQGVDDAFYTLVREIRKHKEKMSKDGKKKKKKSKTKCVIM
Sequence (P62937 whole entry): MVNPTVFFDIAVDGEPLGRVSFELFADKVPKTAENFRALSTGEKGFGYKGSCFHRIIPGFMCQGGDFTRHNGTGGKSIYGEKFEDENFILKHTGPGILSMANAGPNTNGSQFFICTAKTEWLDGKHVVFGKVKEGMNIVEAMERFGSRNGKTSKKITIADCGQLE
quantity: IC50

// solved cases for IC50 follow
CO[C@@H](C)c1ncc(N2CCN(CC(F)(F)F)CC2)cc1-c1c2c3cc(c(F)cc3n1CC(F)(F)F)-c1csc(n1)C[C@H](NC(=O)[C@H](C(C)C)N(C)C(=O)[C@H]1C[C@@H](C#CC(F)(F)F)C1)C(=O)N1CCC[C@H](N1)C(=O)OCC(C)(C)C2 (atropisomer, axis not shown; (M)): > 10 µM
CCn1c(-c2cc(N3CCN(C)CC3)cnc2[C@H](C)OC)c2c3cc(c(F)cc31)-c1csc(n1)C[C@H](NC(=O)[C@H](C(C)C)N(C)C(=O)N1CC(C#CC(F)(F)F)C1)C(=O)N1CCC[C@H](N1)C(=O)OCC(C)(C)C2 (atropisomer, axis not shown; (M)): 1.88 µM
CC#CC(=O)N1CC[C@H](C(=O)N(C)[C@H](C(=O)N[C@H]2Cc3nc(cs3)-c3ccc4c(c3)c(c(-c3cccnc3[C@H](C)OC)n4CC)CC(C)(C)COC(=O)[C@@H]3CCCN(N3)C2=O)C(C)C)C1 [Example A168, reference compound]: 3.62 µM
CO[C@@H](C)c1ncc(N2CCN(C)CC2)cc1-c1c2c3cc(c(F)cc3n1CC(F)(F)F)-c1csc(n1)C[C@H](NC(=O)[C@@H](CC(=O)N1CC(C#CC(F)(F)F)C1)C(C)C)C(=O)N1CCC[C@H](N1)C(=O)OCC(C)(C)C2: 2.25 µM
CO[C@@H](C)c1ncc(N2CCN(C)CC2)cc1-c1c2c3cc(c(F)cc3n1CC(F)(F)F)-c1csc(n1)C[C@H](NC(=O)[C@H](C(C)C)N(C)C(=O)[C@H]1C[C@@H](C#CC(F)(F)F)C1)C(=O)N1CCC[C@H](N1)C(=O)OCC(C)(C)C2 (atropisomer, axis not shown; (M)): > 10 µM
CCn1c(-c2cc(N3CCN(CC(F)(F)F)CC3)cnc2[C@H](C)OC)c2c3cc(c(F)cc31)-c1csc(n1)C[C@H](NC(=O)[C@H](C(C)C)N(C)C(=O)[C@H]1C[C@@H](C#CC(F)(F)F)C1)C(=O)N1CCC[C@H](N1)C(=O)OCC(C)(C)C2 (atropisomer, axis not shown; (M)): > 10 µM

Alright, here's another compound for you.
Incoming: Consider the compound CCn1c(-c2cc(N3CCOCC3)cnc2[C@H](C)OC)c2c3cc(c(F)cc31)-c1csc(n1)C[C@H](NC(=O)[C@H](C(C)C)N(C)C(=O)[C@H]1C[C@@H](C#CC(F)(F)F)C1)C(=O)N1CCC[C@H](N1)C(=O)OCC(C)(C)C2 (atropisomer, axis not shown; (M)) and give its recorded IC50.
Outgoing: > 10 µM
